# study-target: DRB5*0101 (DR2w2a) (Homo sapiens, UniProt P01903+Q30154)
# Construct: Epstein-Barr virus (EBV) transformed homozygous cell lines were used as sources; endogenous in cells; host or cells: GM3107 (EBV-transformed homozygous B cell line)
# assay-text: biochemical
# Assay type: binding
# measurement-setup: Binding Capacity (IC50% nM) DR2w2a
No end group written: not given here.
measure-name: IC50 (nM)
Give the quantity in nM, number only.

Field IC50 (system: DRB5*0101 (DR2w2a) (Homo sapiens, UniProt P01903+Q30154)) for entry LAAIIFLFGPPTALRS [Peptide 1136.28] = 1480

Observed IC50, DRB5*0101 (DR2w2a) (Homo sapiens, UniProt P01903+Q30154), GPPTALRSFGFAFGYM [Peptide 1136.29] : 468
